- systemTested: CDK2/Cyclin A complex (Homo sapiens, UniProt P24941)
- assayName: CDK2/Cyclin A assay
- Assay type: biochemical
- Parameters: concentration or dose not given beside the values
- runConditions: Table A combinatorial examples; footnote c not given
Returns the class for an entry based on its CDK2^c. Class ranges: c1: < 3; c2: ≥ 3 and < 10; c3: ≥ 10

compound: CCN(CC)c1ccc(-c2csc(-c3sc(Nc4cc(OC)c(OC)c(OC)c4)nc3N)n2)cc1
systemTested: CDK2/Cyclin A complex (Homo sapiens, UniProt P24941)
discreteLabel: c2
--
compound: COc1cc(Nc2nc(N)c(-c3nc(-c4cc(C(=O)C(Cl)(Cl)Cl)n(C)c4)cs3)s2)cc(OC)c1OC
systemTested: CDK2/Cyclin A complex (Homo sapiens, UniProt P24941)
discreteLabel: c2
--
compound: COc1cc(Nc2nc(N)c(-c3nc(-c4cc(C(C)(C)C)c(O)c(C(C)(C)C)c4)cs3)s2)cc(OC)c1OC
systemTested: CDK2/Cyclin A complex (Homo sapiens, UniProt P24941)
discreteLabel: c2
--
compound: COc1cc(Nc2nc(N)c(-c3nc(-c4sc5ccccc5c4C)cs3)s2)cc2c1OCCO2
systemTested: CDK2/Cyclin A complex (Homo sapiens, UniProt P24941)
discreteLabel: c3
--
compound: COc1cc(Nc2nc(N)c(-c3nc(-c4c(C)c(C)c(C)c(C)c4C)cs3)s2)cc(OC)c1OC
systemTested: CDK2/Cyclin A complex (Homo sapiens, UniProt P24941)
discreteLabel: c3
--
compound: COc1cc(Nc2nc(N)c(-c3nc(-c4cc5cc(Cl)ccc5o4)cs3)s2)cc2c1OCCO2
systemTested: CDK2/Cyclin A complex (Homo sapiens, UniProt P24941)
discreteLabel: c1
--
compound: COc1cc(Nc2nc(N)c(-c3nc(-c4ccc(C(F)(F)F)cc4)cs3)s2)cc(OC)c1OC
systemTested: CDK2/Cyclin A complex (Homo sapiens, UniProt P24941)
discreteLabel: c3
--
compound: COc1cc(OC)c(-c2csc(-c3sc(Nc4cc(OC)c(OC)c(OC)c4)nc3N)n2)c(O)c1Cl
systemTested: CDK2/Cyclin A complex (Homo sapiens, UniProt P24941)
discreteLabel: c3
--
compound: COc1cc(Nc2nc(N)c(-c3nc(-c4ccccc4[N+](=O)O)cs3)s2)cc(OC)c1OC
systemTested: CDK2/Cyclin A complex (Homo sapiens, UniProt P24941)
discreteLabel: c1
--
compound: CCOC(=O)c1ccccc1-c1csc(-c2sc(Nc3cc(OC)c(OC)c(OC)c3)nc2N)n1
systemTested: CDK2/Cyclin A complex (Homo sapiens, UniProt P24941)
discreteLabel: c2
--
compound: COc1cc(Nc2nc(N)c(-c3nc(-c4cccc(Br)c4)cs3)s2)cc(OC)c1OC
systemTested: CDK2/Cyclin A complex (Homo sapiens, UniProt P24941)
discreteLabel: c3
--
compound: COc1cc(Nc2nc(N)c(-c3nc(-c4c(Cl)c(Cl)nc(Cl)c4Cl)cs3)s2)cc(OC)c1OC
systemTested: CDK2/Cyclin A complex (Homo sapiens, UniProt P24941)
discreteLabel: c3
--
compound: COc1cc(Nc2nc(N)c(-c3nc(-c4sc5ccc(Cl)cc5c4C)cs3)s2)cc2c1OCCO2 [drawing 361]
systemTested: CDK2/Cyclin A complex (Homo sapiens, UniProt P24941)
discreteLabel: c2
--
compound: COc1ccc(-c2csc(-c3sc(Nc4cc(OC)c(OC)c(OC)c4)nc3N)n2)cc1 [drawing 336]
systemTested: CDK2/Cyclin A complex (Homo sapiens, UniProt P24941)
discreteLabel: c1
--
compound: COc1cc(Nc2nc(N)c(-c3nc(-c4ccccc4)cs3)s2)cc(OC)c1OC [drawing 358]
systemTested: CDK2/Cyclin A complex (Homo sapiens, UniProt P24941)
discreteLabel: c1
--
compound: COc1cc(Nc2nc(N)c(-c3nc(-c4cccc(OC(=O)c5ccccc5)c4)cs3)s2)cc(OC)c1OC
systemTested: CDK2/Cyclin A complex (Homo sapiens, UniProt P24941)
discreteLabel: c1
